Biological target: androgen receptor (AR) (Homo sapiens)
Sequence (P10275 1-920): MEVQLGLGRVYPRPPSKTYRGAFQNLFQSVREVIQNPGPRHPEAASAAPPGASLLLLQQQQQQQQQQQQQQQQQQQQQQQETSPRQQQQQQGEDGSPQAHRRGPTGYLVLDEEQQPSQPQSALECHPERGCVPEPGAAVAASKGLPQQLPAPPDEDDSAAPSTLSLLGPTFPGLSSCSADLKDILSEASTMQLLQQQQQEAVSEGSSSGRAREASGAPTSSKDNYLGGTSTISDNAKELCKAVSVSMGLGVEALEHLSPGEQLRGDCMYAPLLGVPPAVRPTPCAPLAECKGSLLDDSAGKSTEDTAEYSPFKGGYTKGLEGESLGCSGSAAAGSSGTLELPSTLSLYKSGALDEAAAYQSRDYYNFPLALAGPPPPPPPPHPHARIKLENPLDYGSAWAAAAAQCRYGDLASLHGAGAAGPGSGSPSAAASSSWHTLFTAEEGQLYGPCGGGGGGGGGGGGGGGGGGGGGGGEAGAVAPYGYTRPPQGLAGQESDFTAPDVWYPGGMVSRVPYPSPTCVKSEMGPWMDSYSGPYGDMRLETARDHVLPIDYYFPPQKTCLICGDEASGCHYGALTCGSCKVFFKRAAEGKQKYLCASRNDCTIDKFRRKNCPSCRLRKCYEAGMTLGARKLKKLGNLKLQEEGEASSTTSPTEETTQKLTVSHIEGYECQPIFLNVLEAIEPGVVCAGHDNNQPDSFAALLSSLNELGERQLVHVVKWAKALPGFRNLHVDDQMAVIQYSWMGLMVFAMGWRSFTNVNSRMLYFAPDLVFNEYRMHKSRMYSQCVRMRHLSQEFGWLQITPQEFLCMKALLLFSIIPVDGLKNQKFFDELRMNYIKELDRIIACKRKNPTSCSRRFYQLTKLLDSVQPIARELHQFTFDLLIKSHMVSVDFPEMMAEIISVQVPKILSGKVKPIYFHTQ
Measurement label: pIC50
Numbers only, as −log10 of the molar value.

Can you look up pIC50 on androgen receptor (AR) (Homo sapiens) for CSc1ccc(C(N)=O)cc1-c1ccc2cnccc2c1 ? 6.05

Source listed as paper PMC10726465.
